Target: Aldehyde dehydrogenase 1A1 (Homo sapiens)
Assay: qHTS for Inhibitors of the Aldehyde Dehydrogenase Family (ALDH1A1) Confirmatory screens (AID 2061316); also: nearly all actives have a fitted effect of over 65% in size
Settings: ALDH inhibition qHTS; series mostly up to 47.3 µM
Records with an inconclusive call do not appear. The source made the active and inactive calls. Calls follow the shape of the dose curve; as a rule, active = well fitted inhibition curve with a large enough effect; inconclusive = small, poorly fitted or top-dose-only effect; inactive = no such curve, though single readings can be large or run the other way.
Possible outcomes: class 1 for active, class 0 for inactive

> print(dat)
                                    compound  label.value
 1   S=C(c1ccc(-c2ccc(Cl)c(Cl)c2)o1)N1CCCCC1      class 1
 2  NC(=O)c1ccc(C[C@H](C(=O)O)N2C(=O)c3ccc(C(=O)O)cc3C2=O)cc1      class 0
 3  CC[C@H](NC(=O)c1c(O)c(-c2ccccc2)nc2ccccc12)c1ccccc1      class 1
 4     N#Cc1cc(C2=Nc3ccc(Br)cc3NC(=O)C2)ccn1      class 0
 5  O=C1c2cccc3cccc(c23)C(=O)N1CCN1CCN(S(=O)(=O)c2cccc([N+](=O)[O-])c2)CC1      class 0
 6  COc1cc(C2Oc3c(OC)cc(CCCO[C@@H]4O[C@H](CO)[C@@H](O)[C@H](O)[C@H]4O)cc3C2CO)ccc1O (stereo partly specified)      class 0
 7       N#Cc1c(-c2ccc3c(c2)OCO3)no[n+]1[O-]      class 0
 8    NC(=O)N1CCN(c2nc(-c3ccc(Br)cc3)cs2)CC1      class 0
 9  C=CC(=O)Nc1cccc(Nc2nc(Nc3ccc(Oc4ccnc(C(=O)NC)c4)cc3)ncc2F)c1      class 0
10  O=C1c2ccccc2NC(c2ccc(-c3cccc([N+](=O)[O-])c3)o2)N1O (stereo unspecified)      class 1
11  Cn1cnc(-c2nccc3c(=O)[nH]c(OCCCC(F)(F)F)nc23)c1      class 0
12  CCCN(CCN1CCN(c2ccccc2OC)CC1)C1CCc2ncsc2C1 (stereo unspecified)      class 0
13  CC(C)(Cc1ccccc1)NCC(O)c1ccc(O)c(NS(C)(=O)=O)c1 (stereo unspecified)      class 0
14    COc1ccc(-c2cncc(NC(=O)c3cccs3)c2)cc1OC      class 0
15        CCc1nc2nc(C)cc(Nc3ccc(Br)cc3F)n2n1      class 0
16  Cc1ccc(OCCn2c(CCNC(=O)c3cccnc3)nc3ccccc32)cc1      class 0
17  CN(C)c1cccc(-c2csc(N3CCC(C(N)=O)CC3)n2)c1      class 1
18  COc1ccc(C2Nc3ccccc3C(=O)N2Cc2ccc(C(F)(F)F)cc2)cc1COc1ccc(NC(C)=O)cc1 (stereo unspecified)      class 1
19  COc1cccc(C2c3c(ncn(CCCN4CCOCC4)c3=N)Oc3ccc4ccccc4c32)c1 (stereo unspecified)      class 0
20  COc1ccc(-c2ccn(CC[C@](C)(C(=O)NO)S(C)(=O)=O)c(=O)c2)c(F)c1      class 1
21          Clc1cccc(COc2cncc(N3CCNCC3)n2)c1      class 0

Data origin: PubChem BioAssay (NCATS)
